The measurements presented in this section are drawn from patent US20230174670A1.

Reported pEC50 by item:
Target: T1, recombinant human CD25-His protein (human, UniProt P01589 22-213)
T1 construct: range 22-213; Purchased from Sino Biological Inc. Printed construct Met1-Cys213 includes the signal peptide
T1 sequence (looked up): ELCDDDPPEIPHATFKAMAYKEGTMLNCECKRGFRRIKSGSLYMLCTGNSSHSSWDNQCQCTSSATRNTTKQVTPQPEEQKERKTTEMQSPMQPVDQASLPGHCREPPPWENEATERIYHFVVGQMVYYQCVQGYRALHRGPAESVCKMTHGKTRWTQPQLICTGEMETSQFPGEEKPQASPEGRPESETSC
Assay: ELISA, plate coated with human CD25-His
Scale explanation: pEC50 corresponds to minus log10 of a concentration expressed in moles per litre.

Use these answered entries as a reference point.
# binder, pEC50
data = [
    ("cAb002 (antibody, human IgG1, V domains shown, also called mAb002/cAb002) VH: QVTLKESGPGILQPSQTLSLTCSFSGFSLSTFGLGVGWIRQPSGKGLEWLAQIWWDDDEYYNPALKSRLTISKDTSRNQVFLKIANVDTGDTATYFCARMGDTYWYFDVWGTGTTVAVSS VL: EIVVTQSPALMAVSPGEKVTITCSLSSGITSSNLHWYQQKSETSPKPWIYGTSNLASGVPVRFSGSGSKTSYSLTISSMEAEDAATYYCQQWSSYPFTFGSGTKLEIK", 9.56),
    ("cAb046 (antibody, human IgG1, V domains shown, also called mAb046/cAb046) VH: EVQLVESGGGLVKPGGSLKLSCAASGFTFSSYAMSWVRQTPEKRLEWVATISEGGSYTYYPDNVKGRFTISRDNARNNLYLQMSHLKSEDTAMYLCVRDNPWFAYWGQGTLVTVST VL: DVLMTQTPLSLPVSLGDRASISCRSSQNIVHSNGNTYLEWFLQKPGQSPKLLIYKVSKRFSGVPDRFSGSGSGTDFTLKISRVEAEDLGVYYCFQGSHVPYTFGGGTKLEIK", 9.45),
    ("cAb001 (antibody, V domains shown, also called mAb001/cAb001) VH: QVTLKESGPGILQPSQTLSLTCSFSGFSLNTFGMGVGWIRQPSGKGLEWLAHIWWDDDKYYNPALKSRLTISKDTSKNQVFLKIANVDTADTVTYYCARITTEVGNYDVWGMGTTVTVSS VL: EIVLTQSPALMAASPGEKVTITCSVSSGITSNNLHWYQQKSETSPKPWIYGTSNLASGVPIRFSGSGSGTSYSLTISSMEAEDAATYYCQQWSSYPFTFGSGTKLEIK", 9.64),
]

Turning now to a further binder:
Notebook: cAb006 (antibody, human IgG1, V domains shown, also called mAb006/cAb006) VH: QIQLQQSGAELMKPGASVKLSCKATGYTFTGHWIEWVKQRPGHGLEWVGEILPGSNKINYNEKFKGKATFTAETSSNTVYMQLSSLTTEDSAIYYCAGGGGPHWPFAFWGQGSLVTVSA VL: DIVLTQSPASLTVSLGQRATISCRASESVNVHGAHLMHWYQQKPGQPPKLLIYAASILESGVPARFSGSGSETDFTLNIHPVEEEDAATYFCQQTIEDPRTFGGGTKLEIK , pEC50 read as 9.70
